Values from patent US9580430B2

# measurement-target: recombinant BRD4 BD1 (Homo sapiens)
# Construct: for recombinant BRD4 BD1 and BRD4 BD2 proteins
# assay-overview: Competitive fluorescence-polarization (FP) binding assay, BRD4 BD1; also: probe 1.5 nM
# recorded-conditions: competitive FP assay; protein 10 nM, probe […]; read-out: IC50 (nM) BRD4 BD1
measurement-type: IC50 (nM)
One number for each entry, in nM.

The following molecules have reported results that may help.
> print(dat)
                                   molecule                   measurement.target  measurement.type  measurement.units  data.value
1  COc1cc2c(cc1-c1c(C)noc1C)[nH]c1nc(C)nc(Nc3cnn(C)c3C)c12 [Cpd. No. 170]  recombinant BRD4 BD1 (Homo sapiens)              IC50                 nM        44.9
2  CCn1nc(C)c(C)c1Nc1nc(C)nc2[nH]c3cc(-c4c(C)noc4C)c(OC)cc3c12 [Cpd. No. 186]  recombinant BRD4 BD1 (Homo sapiens)              IC50                 nM        33.9
3  COc1cc2c(cc1-c1c(C)noc1C)[nH]c1nc(C)nc(Nc3cc(C4CCC4)nn3C)c12 [Cpd. No. 136]  recombinant BRD4 BD1 (Homo sapiens)              IC50                 nM        10.5
4  COc1cc2c(cc1-c1c(C)noc1C)[nH]c1nc(C)nc(Nc3cccc(Cl)c3F)c12 [Cpd. No. 217]  recombinant BRD4 BD1 (Homo sapiens)              IC50                 nM         165
5  COc1cc2c(cc1-c1c(C)noc1C)[nH]c1nc(C)nc(Nc3c(C(C)C)nn(C)c3C)c12 [Cpd. No. 194]  recombinant BRD4 BD1 (Homo sapiens)              IC50                 nM        10.1

Could you report IC50 for every entry in the following list?
1. COc1cc2c(cc1-c1c(C)noc1C)[nH]c1nc(C)nc(Nc3ccccc3)c12 [Cpd. No. 226]
2. COc1cc2c(cc1-c1c(C)noc1C)[nH]c1nc(C)nc(Nc3cc(C4CC4)nn3C(C)C)c12 [Cpd. No. 149]
3. COc1cc2c(cc1-c1c(C)noc1C)[nH]c1nc(C)nc(Nc3cc(C(F)(F)F)nn3C)c12 [Cpd. No. 21]
4. COc1cc2c(cc1-c1c(C)noc1C)[nH]c1nc(C)nc(Nc3cc(C)nn3C)c12 [Cpd. No. 8]
5. COc1cc2c(cc1-c1c(C)noc1C)[nH]c1nc(C)nc(Nc3ccc4cc[nH]c4c3)c12 [Cpd. No. 233]
6. COc1cc2c(cc1-c1c(C)noc1C)[nH]c1nc(C)nc(Nc3ccnn3C(C)(C)C)c12 [Cpd. No. 183]
7. COc1cc2c(cc1-c1c(C)noc1C)[nH]c1nc(C)nc(Nc3cnccc3C)c12 [Cpd. No. 109]

[21, 6.8, 13.3, 9.7, 69, 9.6, 284]

# batch size: 3; output IC50 per entry
1. COc1cc2c(cc1-c1c(C)noc1C)[nH]c1nc(C)nc(Nc3c4c(nn3CCO)CCC4)c12 [Cpd. No. 150]
2. COc1cc2c(cc1-c1c(C)noc1C)[nH]c1nc(C)nc(Nc3cccc4c3cnn4C)c12 [Cpd. No. 235]
3. COc1cc2c(cc1-c1c(C)noc1C)[nH]c1nc(C)nc(Nc3cc(C)nn3C3CCC3)c12 [Cpd. No. 119]

9.6
41
11.4

Could you share which IC50 value was measured for COc1cc2c(cc1-c1c(C)noc1C)[nH]c1nc(C)nc(Nc3cc(C)nn3-c3cccc(Cl)c3)c12 [Cpd. No. 7] ?
365
